Target: COX-1 (Homo sapiens)
Test: Inhibitory activity on COX-1 (PGE2 production from arachidonic acid, PGE2 ELISA; Needleman method)
Conditions: 1 mM arachidonic acid, 1 μM hematin, pH 8.0, 37° C., 10 min
pIC50: −log10 of the molar value.
readout: pIC50

Known results for molecules:
- given.smiles: "COc1cccc(-c2c3cccccc-3cc2-c2ccc(S(C)(=O)=O)cc2)c1"
  pIC50: "< 5.00"
- given.smiles: "CS(=O)(=O)c1ccc(-c2cc3cccccc-3c2-c2ccc(Cl)cc2)cc1"
  pIC50: "< 5.00"
- given.smiles: "NS(=O)(=O)c1ccc(-c2cc3cccccc-3c2-c2ccc(F)c(Cl)c2)cc1"
  pIC50: "< 5.00"
- given.smiles: "COc1ccc(-c2c3cccccc-3cc2-c2ccc(S(C)(=O)=O)cc2)cc1OC"
  pIC50: "< 5.00"
- given.smiles: "Cc1ccc(-c2c3cccccc-3cc2-c2ccc(S(N)(=O)=O)cc2)cc1Cl"
  pIC50: 5.39

Entry under test: COc1ccc(-c2c3cccccc-3cc2-c2ccc(S(C)(=O)=O)cc2)cc1Cl . Its pIC50 was < 5.00

Memo: Cc1cccc(-c2c3cccccc-3cc2-c2ccc(S(N)(=O)=O)cc2)c1 , reported pIC50: 5.37

NS(=O)(=O)c1ccc(-c2cc3cccccc-3c2-c2ccccc2)cc1 yielded pIC50 of < 5.00

Form: molecule = Cc1ccc(-c2c3cccccc-3cc2-c2ccc(S(C)(=O)=O)cc2)cc1Cl ; pIC50 = < 5.00

For reference, reported pIC50 for COc1ccc(-c2c3cccccc-3cc2-c2ccc(S(N)(=O)=O)cc2)cc1Cl stands at 6.02

Note to self: pIC50 recorded for CS(=O)(=O)c1ccc(-c2cc3cccccc-3c2-c2cccc(F)c2)cc1 was < 5.00

====

Each record here notes measured IC50.
Target: COX-1 (Homo sapiens, UniProt P23219)
Sequence (P23219 24-599): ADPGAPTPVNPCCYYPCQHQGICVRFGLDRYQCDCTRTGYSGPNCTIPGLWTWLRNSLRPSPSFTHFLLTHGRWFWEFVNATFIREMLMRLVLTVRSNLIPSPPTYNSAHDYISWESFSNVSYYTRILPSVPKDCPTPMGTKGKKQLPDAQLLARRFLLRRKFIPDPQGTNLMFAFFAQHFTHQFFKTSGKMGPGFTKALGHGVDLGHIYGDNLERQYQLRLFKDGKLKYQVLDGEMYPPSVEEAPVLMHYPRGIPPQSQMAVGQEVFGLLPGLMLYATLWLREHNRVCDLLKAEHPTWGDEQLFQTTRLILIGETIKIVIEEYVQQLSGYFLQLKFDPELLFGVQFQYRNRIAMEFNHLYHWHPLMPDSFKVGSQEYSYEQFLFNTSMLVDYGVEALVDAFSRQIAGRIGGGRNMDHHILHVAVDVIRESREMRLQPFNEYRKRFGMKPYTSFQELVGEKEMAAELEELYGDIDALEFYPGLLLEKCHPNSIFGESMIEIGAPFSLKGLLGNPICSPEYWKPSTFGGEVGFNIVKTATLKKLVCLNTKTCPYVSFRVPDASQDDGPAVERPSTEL
Assay: Inhibitory activity on COX-1 (PGE2 production from arachidonic acid, PGE2 ELISA; Needleman method)
Details: 1 mM arachidonic acid, 1 μM hematin, pH 8.0, 37° C., 10 min

IC50 for COc1cccc(-c2c3cccccc-3cc2-c2ccc(S(N)(=O)=O)cc2)c1 is > 10 µM

Consider CS(=O)(=O)c1ccc(-c2c(F)c3cccccc-3c2-c2ccccc2)cc1 . Its measured IC50 is > 10 µM

// IC50 lookup, molecule = COc1ccc(-c2c3cccccc-3cc2-c2ccc(S(N)(=O)=O)cc2)cc1OC , result: > 10 µM
